test_system: Mu-type opioid receptor (Cavia porcellus)
procedure_details: Negative logarithm of the molar concentration for agonist activity at mu receptor was determined in guinea pig ileum
Format: functional, tissue-based
endpoint_label: pEC50
pEC50 here: minus log base 10 of the concentration, concentration in moles per litre.

The cases that follow already have their pEC50 on record.
compound	test_system	endpoint_label	value_observed
Cc1cc(O)cc(C)c1C[C@H](N)C(=O)N1CCc2ccc(F)cc2C1	Mu-type opioid receptor (Cavia porcellus)	pEC50	6.20
C[C@@H](NC(=O)[C@@H](N)Cc1ccc(O)cc1)C(=O)N[C@@H](Cc1ccccc1)C(=O)NCC(=O)N[C@@H](Cc1ccc(O)cc1)C(=O)N1CCC[C@H]1C(=O)N[C@@H](CO)C(N)=O	Mu-type opioid receptor (Cavia porcellus)	pEC50	8.80
Cc1cc(O)cc(C)c1C[C@H](N)C(=O)N1Cc2ccc(F)cc2CC1C(=O)O (stereo not given in full)	Mu-type opioid receptor (Cavia porcellus)	pEC50	6.09
Cc1cc(O)cc(C)c1C[C@H](N)C(=O)N1Cc2ccccc2CC1COCc1ccccc1 (stereo not given in full)	Mu-type opioid receptor (Cavia porcellus)	pEC50	6.28

Moving on to the next compound.
Documented pEC50 of Cc1cc(O)cc(C)c1C[C@H](N)C(=O)N1CCc2ccccc2C1 : 6.31

###

test_system: Mu-type opioid receptor (Cavia porcellus, UniProt P97266)
Sequence (P97266 whole entry): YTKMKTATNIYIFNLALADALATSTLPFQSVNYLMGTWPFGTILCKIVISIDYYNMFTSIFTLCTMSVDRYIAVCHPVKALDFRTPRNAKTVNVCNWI
procedure_details: Negative logarithm of the molar concentration for agonist activity at Opioid receptor mu 1 was determined in guinea pig ileum
Format: functional, tissue-based
pEC50: −log10 of the molar value. Square brackets hold non-standard residues; d marks the D form. Peptide text beside a SMILES is read from it. ξ: configuration not given here. Dmt = Cc1cc(O)cc(C)c1C[C@H](N)C(=O)O; ξTic = O=C(O)C1Cc2ccccc2CN1
endpoint_label: pEC50

> print(dat)
                                   molecule  value.observed
1  Cc1cc(O)cc(C)c1C[C@H](N)C(=O)N1Cc2ccccc2CC1CO (some centres not stated)          < 5.00

Moving on to the next molecule.
Reported pEC50 (Mu-type opioid receptor (Cavia porcellus, UniProt P97266)) for entry Cc1cc(O)cc(C)c1C[C@H](N)C(=O)N1Cc2ccccc2CC1C(N)=O (some centres not stated) (H-[Dmt]-[ξTic]-NH2) is < 5.00

The measurements presented in this section are drawn from ChEMBL document CHEMBL1132844.
